# Assay Target: T1, amyloid peptide AβpE3-42 (UniProt P05067 674-713, N-terminal pyroglutamate (pE) at Aβ position 3)
# T1 construct: domain: AβpE3-42; Bought synthetic peptide; also called AβpGlu3-42; Aβ(Glp3)3-42
# T1 sequence (P05067 674-713 limits assumed): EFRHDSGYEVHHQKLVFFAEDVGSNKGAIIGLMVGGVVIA
# Assay Details: ELISA, plate coated with AβpE3-42, antibody titrated, A650nm
Measurement Kind: binding result

1) humanized NT4X-167 RHN/RKA (antibody, mouse IgG1, V domains shown) VH: QVQLQESGPGLVKPSETLSLTCTVSGFSLTSYGIHWIRQPPGKGLEWIGVMWSGGITDFYAAFISRLTISRDTSKNQVSLKMSSVTAADTAVYYCARGSRYALDYWGQGTLVTVSS VL: DIQMTQSPSSLSASVGDRVTITCRASQDISNYLNWYQQKPGKAPKLLIYYTSRLHSGVPSRFSGSGSGTDFTLTISSLQPEDFATYYCQQGNTLPPTFGGGTKLEIK
binds
2) humanized NT4X-167 RHQ/RKA (antibody, mouse IgG1, V domains shown) VH: QVQLQESGPGLVKPSETLSLTCTVSGFSLTSYGIHWIRQPPGKGLEWLGVMWSGGITDFYAAFISRLTISRDTSKNQFSLKMSSVTAADTAVYYCARGSRYALDYWGQGTLVTVSS VL: DIQMTQSPSSLSASVGDRVTITCRASQDISNYLNWYQQKPGKAPKLLIYYTSRLHSGVPSRFSGSGSGTDFTLTISSLQPEDFATYYCQQGNTLPPTFGGGTKLEIK
binds

Reference source: patent US20210347867A1
